molecular target: Bone morphogenetic protein receptor type-1A (Homo sapiens, UniProt P36894); note: in the data inactive means no Kd found up to 30 µM
Sequence (P36894 whole entry): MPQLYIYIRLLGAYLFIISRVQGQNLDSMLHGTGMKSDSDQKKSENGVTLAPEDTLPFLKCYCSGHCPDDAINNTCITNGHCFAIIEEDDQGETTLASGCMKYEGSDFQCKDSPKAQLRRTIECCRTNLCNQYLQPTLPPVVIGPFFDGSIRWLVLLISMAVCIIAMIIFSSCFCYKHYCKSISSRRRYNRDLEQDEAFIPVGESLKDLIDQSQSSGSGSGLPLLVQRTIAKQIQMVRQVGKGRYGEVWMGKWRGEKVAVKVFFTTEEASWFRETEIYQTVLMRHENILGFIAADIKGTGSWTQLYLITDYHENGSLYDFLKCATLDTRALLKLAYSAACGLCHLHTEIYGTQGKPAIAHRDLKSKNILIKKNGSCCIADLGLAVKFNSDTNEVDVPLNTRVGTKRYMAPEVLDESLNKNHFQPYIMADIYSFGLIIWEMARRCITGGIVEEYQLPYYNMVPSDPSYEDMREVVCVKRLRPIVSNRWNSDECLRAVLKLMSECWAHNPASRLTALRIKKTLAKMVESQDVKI
Calls of active or inactive are those of the source.
Field 'call' accepts 1 = active, -1 = inactive

Molecule	Label value
COc1cc([C@@H]2c3cc4c(cc3[C@H](O)[C@H]3COC(=O)[C@@H]23)OCO4)cc(OC)c1OC	-1
CC(=O)NCC(=O)N1[C@@H]2CC[C@H]1c1ccc(Nc3ncc(C(F)(F)F)c(NC4CCC4)n3)cc12	-1
COc1ncc(-c2ccc3nccc(-c4ccnnc4)c3c2)cc1NS(=O)(=O)c1ccc(F)cc1F	-1
CNC(=O)c1cccc2cc(Oc3ccnc4cc(OCC5(N)CC5)c(OC)cc34)ccc12	-1

[ask] Short answer needed: outcome of this test for `CNC(=O)c1nn(C)c2c1C(C)(C)Cc1cnc(Nc3ccc(N4CCN(C)CC4)cc3)nc1-2` ?
[reply] -1

[ask] Follow-up item: `COc1cc2c(Nc3ccc(Cl)c(Cl)c3F)ncnc2cc1OC[C@@H]1C[C@@H]2CN(C)C[C@@H]2C1`
[reply] -1

[ask] Thanks! And `CC(=O)c1cnc2ccc(-c3cc(Cl)c(O)c(Cl)c3)nc2c1N[C@H]1CC[C@H](CN(C)C)CC1` ?
[reply] -1

[ask] Try `C[C@@H](NC(=O)c1ncnc(N)c1Cl)c1ncc(C(=O)Nc2cc(C(F)(F)F)c(Cl)cn2)s1` next.
[reply] -1

[ask] // next record `CN1C/C=C/CCOc2cccc(c2)-c2ccnc(n2)Nc2cccc(c2)C1`
[reply] -1

----------
target: Ribosyldihydronicotinamide dehydrogenase [quinone] (Homo sapiens); note: in the data inactive means no Kd found up to 30 µM
Sequence (P16083 whole entry): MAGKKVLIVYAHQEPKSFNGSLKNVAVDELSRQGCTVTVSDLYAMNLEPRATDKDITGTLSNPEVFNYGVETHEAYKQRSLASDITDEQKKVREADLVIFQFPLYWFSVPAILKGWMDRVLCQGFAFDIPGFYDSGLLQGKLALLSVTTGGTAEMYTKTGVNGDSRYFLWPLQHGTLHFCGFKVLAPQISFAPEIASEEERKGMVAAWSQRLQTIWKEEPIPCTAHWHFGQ
The source made the active and inactive calls.
The reply should be one of these categories: active, inactive

Field: example entries. Status: answers known.
Compound	Label value
COc1ccc(S(=O)(=O)N(C(C)=O)c2ccccc2/C=C/c2cc[n+]([O-])cc2)cc1 [HMN-214]	inactive
COc1cc(Nc2ncc3c(n2)-c2ccc(Cl)cc2C(c2c(F)cccc2OC)=NC3)ccc1C(=O)O [ALISERTIB]	inactive
NC1(c2ccc(-c3nc4ccn5c(=O)[nH]nc5c4cc3-c3ccccc3)cc2)CCC1 [MK-2206]	inactive
Cn1cc(-c2cnn3c(N)c(Br)c([C@@H]4CCCNC4)nc23)cn1 [SCH-900776]	active
N#CC[C@H](C1CCCC1)n1cc(-c2ncnc3[nH]ccc23)cn1 [RUXOLITINIB]	inactive
C#Cc1cccc(Nc2ncnc3cc(OC)c(OCCCCCCC(=O)NO)cc23)c1 [CUDC-101]	inactive
CCCCCCCCCCCCCCCCCCOP(=O)([O-])OC1CC[N+](C)(C)CC1 [PERIFOSINE]	inactive

Consider the record given below.
[ask] Hey, what did the test say about Cc1[nH]c(/C=C2\C(=O)Nc3ccccc32)c(C)c1CCC(=O)O [ORANTINIB] ?
[reply] inactive

----------
Molecular target: Acyl-CoA dehydrogenase family member 10 (Homo sapiens); note: in the data inactive means no Kd found up to 30 µM
Sequence (Q6JQN1 whole entry): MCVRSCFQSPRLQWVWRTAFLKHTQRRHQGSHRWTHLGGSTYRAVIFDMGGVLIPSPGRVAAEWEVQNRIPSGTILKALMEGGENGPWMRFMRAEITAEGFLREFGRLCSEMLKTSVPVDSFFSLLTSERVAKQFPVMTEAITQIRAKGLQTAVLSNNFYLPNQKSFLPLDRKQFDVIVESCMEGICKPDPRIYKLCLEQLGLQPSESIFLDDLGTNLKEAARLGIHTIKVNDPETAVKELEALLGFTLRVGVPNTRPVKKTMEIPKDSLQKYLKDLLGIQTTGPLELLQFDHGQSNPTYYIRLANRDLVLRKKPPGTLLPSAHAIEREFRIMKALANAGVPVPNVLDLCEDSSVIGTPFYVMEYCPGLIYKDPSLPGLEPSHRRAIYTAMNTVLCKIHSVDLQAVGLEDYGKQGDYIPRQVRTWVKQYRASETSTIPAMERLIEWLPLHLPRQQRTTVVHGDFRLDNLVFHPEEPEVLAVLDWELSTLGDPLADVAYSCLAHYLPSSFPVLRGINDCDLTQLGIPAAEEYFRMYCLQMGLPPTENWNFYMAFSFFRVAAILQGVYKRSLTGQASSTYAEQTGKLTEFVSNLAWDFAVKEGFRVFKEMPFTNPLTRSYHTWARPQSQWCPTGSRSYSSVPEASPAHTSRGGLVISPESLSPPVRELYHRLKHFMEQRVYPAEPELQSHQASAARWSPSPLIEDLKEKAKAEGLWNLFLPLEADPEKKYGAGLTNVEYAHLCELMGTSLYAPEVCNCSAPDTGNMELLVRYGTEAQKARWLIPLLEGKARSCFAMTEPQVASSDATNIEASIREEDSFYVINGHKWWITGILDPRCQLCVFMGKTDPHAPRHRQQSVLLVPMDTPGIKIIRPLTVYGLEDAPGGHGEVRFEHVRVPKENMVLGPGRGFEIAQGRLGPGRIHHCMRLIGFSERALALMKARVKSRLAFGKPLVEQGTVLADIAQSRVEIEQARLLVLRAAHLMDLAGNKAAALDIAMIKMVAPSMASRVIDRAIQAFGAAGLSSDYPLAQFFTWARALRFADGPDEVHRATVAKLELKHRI
Where a name gives a salt, the structure may show the parent alone. Activity calls are given as the source filed them.
Consider the following molecules; for each one, report its Kd.

Quick batch: Kd for everything below.
1. NC(=O)Nc1cc(-c2cccc(F)c2)sc1C(=O)N[C@H]1CCCNC1 [AZD-7762]
2. CO[C@H]1C[C@@H]2CC[C@@H](C)[C@@](O)(O2)C(=O)C(=O)N2CCCC[C@H]2C(=O)O[C@H]([C@H](C)C[C@@H]2CC[C@@H](OC(=O)C(C)(CO)CO)[C@H](OC)C2)CC(=O)[C@H](C)/C=C(\C)[C@@H](O)[C@@H](OC)C(=O)[C@H](C)C[C@H](C)/C=C/C=C/C=C/1C [TEMSIROLIMUS]
3. CCS(=O)(=O)N1CCN(c2ccc(Nc3ncc(C(N)=O)c(NC4CC4)n3)cc2)CC1 [Cerdulatinib Hydrochloride]

[reply]
1. > 30 µM (inactive)
2. > 30 µM (inactive)
3. > 30 µM (inactive)
